Origin of values: patent US20260365653A1

System: BA/F3 (insSVD) cells
Test: Ba/F3-EGFR-insSVD cell survival assay (Cell Titer-Glo)
Format: cell-based
Conditions: Mus musculus, BaF3, 48 h, Table 3a, cell survival, Cell Titer-Glo, with 10 ng/ml EGF, without IL-3
pIC50: −log10 of the molar value.
Note to self: values exactly at 7 are 1 (yes). So pIC50 at or above 7 is 1 (yes), below is 0 (no).

Q) hey, is pIC50 for this one >= 7? CN(C)C/C=C/C(=O)N1Cc2c(-c3ccncc3)c(-c3ccc(F)cc3)nn2C(CO)C1 (racemic)
A) 0 (no)

Q) Decide: is the reported value of pIC50 for C=CC(=O)N1Cc2c(-c3ccncc3)c(-c3ccc(C(F)(F)F)cc3F)nn2C[C@@H]1C equal to or greater than 7?
A) 1 (yes)

Q) Decide: is the reported value of pIC50 for C=CC(=O)N1Cc2c(-c3ccncc3)c(-c3ccc(F)cc3)nn2C(CO)C1 (racemic) equal to or greater than 7?
A) 1 (yes)

Q) API: above_or_equal(metric=pIC50, cutoff=7) for item NC1(C#CC(=O)N2CCn3nc(-c4ccc(F)cc4)c(-c4ccncc4)c3C2)CC1
A) 0 (no)

Q) Please check the record O=C(/C=C/CN1CCC1)N1CCn2nc(-c3ccc(Cl)cc3)c(-c3ccncc3)c2C1 and state if its pIC50 is at or above 7.
A) 1 (yes)

Q) Could you please find out whether O=C(/C=C/CN1CC(F)C1)N1CCn2nc(-c3ccc(Cl)cc3)c(-c3ccncc3)c2C1 has pIC50 that meets 7 or exceeds it?
A) 1 (yes)
